tested on: BJeLR fibroblasts viability, Alamar Blue fluorescence, 48 h; experiment: viability loss in RAS-dependent TERT BJ cells – cell-based, alamar blue fluorescence, powder samples, dose response (AID 2611)
pEC50: −log10 of the molar value.
quantity-measured: pEC50

- compound: "COc1ccc(C(C(=O)NC2CCCCC2)N(C(=O)CCl)c2cccc(Cl)c2)cc1 (stereo unspecified)"
  assay-target: "BJeLR fibroblasts viability, Alamar Blue fluorescence, 48 h"
  obs-value: 5.47
- compound: "CCOc1ccc(Nc2nc(N)nc(CCl)n2)cc1"
  assay-target: "BJeLR fibroblasts viability, Alamar Blue fluorescence, 48 h"
  obs-value: 5.54
- compound: "COc1cccc(N(C(=O)CCl)C(C(=O)NCCc2ccccc2)c2cccs2)c1 (stereo unspecified)"
  assay-target: "BJeLR fibroblasts viability, Alamar Blue fluorescence, 48 h"
  obs-value: 5.49
- compound: "CCCCCCCN(C(=O)CCl)c1cccc(C)c1"
  assay-target: "BJeLR fibroblasts viability, Alamar Blue fluorescence, 48 h"
  obs-value: 5.24
- compound: "COc1ccc(C(C(=O)NC2CCCCC2)N(C(=O)CCl)c2ccc(C)cc2)cc1 (stereo unspecified)"
  assay-target: "BJeLR fibroblasts viability, Alamar Blue fluorescence, 48 h"
  obs-value: 5.12
- compound: "COc1ccc(CN(CCC(c2ccccc2)c2ccc(OC(C)C)cc2)C(=O)CCl)cc1OC (stereo unspecified)"
  assay-target: "BJeLR fibroblasts viability, Alamar Blue fluorescence, 48 h"
  obs-value: 5.57
- compound: "COc1ccc(N(C(=O)CCl)C(C(=O)NCCc2ccccc2)c2cccs2)cc1Cl (stereo unspecified)"
  assay-target: "BJeLR fibroblasts viability, Alamar Blue fluorescence, 48 h"
  obs-value: 5.61
- compound: "COC(=O)[C@@H]1Cc2c([nH]c3ccccc23)C(C)(C)N1C(=O)CCl"
  assay-target: "BJeLR fibroblasts viability, Alamar Blue fluorescence, 48 h"
  obs-value: 5.21
- compound: "C=CCOc1ccccc1CN(C(=O)CCl)c1ccc2c(c1)OCO2"
  assay-target: "BJeLR fibroblasts viability, Alamar Blue fluorescence, 48 h"
  obs-value: 4.73
- compound: "Cc1ccc(C2CC(c3cccs3)=NN2C(=O)CCl)cc1 (stereo unspecified)"
  assay-target: "BJeLR fibroblasts viability, Alamar Blue fluorescence, 48 h"
  obs-value: 5.34
- compound: "COc1ccc(N(C(=O)CCl)C(C(=O)NCCc2ccccc2)c2cccs2)cc1 (stereo unspecified)"
  assay-target: "BJeLR fibroblasts viability, Alamar Blue fluorescence, 48 h"
  obs-value: 5.65

###

system: BJeLR fibroblasts viability, Alamar Blue fluorescence, 48 h; experiment: viability loss in RAS-dependent TERT BJ cells – cell-based, alamar blue fluorescence, powder samples, dose response (AID 2611)
Here, each record is paired with measured EC50 data.
quantity-measured: EC50

- molecule: "Nc1nc(CCl)nc(Nc2ccc3ccccc3c2)n1"
  obs-value: "2.06 µM"
- molecule: "Cc1ccc(N(C(=O)CCl)C(C(=O)NC2CCCCC2)c2cccnc2)cc1C (stereo not drawn)"
  obs-value: "2.27 µM"
- molecule: "O=C(CCl)N=c1sccn1Cc1ccccc1Cl"
  obs-value: "12.1 µM"
